compounds and their reported minimal effective dose
Test system: Ventricular arrhythmia
EXPERIMENT SUMMARY: Harris Dog Efficacy (ventricular arrhythmia induced by 2-stage coronary artery ligation in unanesthetized dogs)
Format: in vivo
ASSAY SETUP: Canis lupus familiaris, 10 min; intravenous; unanesthetized dogs; at least 25% reduction in ectopic beats for at least 10 minutes in half or more of dogs
Report the figure in mg/kg without appending any unit label.

Answered examples (3):
1. CC1CCCC(C)N1CCC1(c2ccccc2Cl)CC(=O)NC1=O (centres unmarked) [Example 6] | 1.3
2. CCCN(CCC)CCCC1(c2ccccc2Cl)CC(=O)NC1=O (centres unmarked) [Example 14] | 1
3. CCN(CC)CCC1(c2ccccc2)CC(=O)NC1=O (centres unmarked) [Formula II (Prior Art), reference compound] | 2

Give recorded minimal effective dose. CC(C)N(CCC1(c2ccccc2)CC(=O)NC1=O)C(C)C (centres unmarked) [Example 2]
10

Give recorded minimal effective dose. CC(C)N(CCC1(c2ccccc2Cl)CC(=O)NC1=O)C(C)C (centres unmarked) [Example 4]
2.8
